- Test system: MS2 coat protein
- assaySummary: apparent KD of MS2 coat protein, switch ON state; designed switch direction (-1 OFF switch, 1 ON switch): -1; higher = weaker reporter binding
- conditionDescription: FMN input: 0 or 200 uM; Eterna round: R93 (includes R88 designs)
Mark True for reported apparent KD of MS2 coat protein of 30 nM or greater; mark False for anything smaller.

# count of solved cases: 2
>  <sequenceData>
AAAAAGCGAGGAUAUACGAGUCAAAGAAAAGACAAGGAGAAACAUGAGGAUCACCCAUGUAGAAGGCGCAAAAA [Fiskers exclusion D2]

>  <labelValue>
False

$$$$
>  <sequenceData>
AUAAACUGAGGAUAUACAUGAGGAUCACCCAUGUAAAAAAAAAAAUGAUCCUCAAAAAGUAGAAGGCAGAAUAA [JR_Exc003_Sub016]

>  <labelValue>
False

$$$$

**Query** Decide: is the reported value of apparent KD of MS2 coat protein for AAAAAACAUGAGGAUCACCCAUGUAAGGAUAUGCUAAAAAACACGGAAAAACGUGAUAGCAGAAGGUACAAAAG [Mat - Exclusion 1 - Eli mod - D87] equal to or greater than 30 nM?
**Result** False
